- system.name: α4β3δ GABA receptors (α4β3δ-HEK-FlpIn-TRex stable cell strain) (Homo sapiens, UniProt P28472+P48169)
- Sequence (P48169 36-554): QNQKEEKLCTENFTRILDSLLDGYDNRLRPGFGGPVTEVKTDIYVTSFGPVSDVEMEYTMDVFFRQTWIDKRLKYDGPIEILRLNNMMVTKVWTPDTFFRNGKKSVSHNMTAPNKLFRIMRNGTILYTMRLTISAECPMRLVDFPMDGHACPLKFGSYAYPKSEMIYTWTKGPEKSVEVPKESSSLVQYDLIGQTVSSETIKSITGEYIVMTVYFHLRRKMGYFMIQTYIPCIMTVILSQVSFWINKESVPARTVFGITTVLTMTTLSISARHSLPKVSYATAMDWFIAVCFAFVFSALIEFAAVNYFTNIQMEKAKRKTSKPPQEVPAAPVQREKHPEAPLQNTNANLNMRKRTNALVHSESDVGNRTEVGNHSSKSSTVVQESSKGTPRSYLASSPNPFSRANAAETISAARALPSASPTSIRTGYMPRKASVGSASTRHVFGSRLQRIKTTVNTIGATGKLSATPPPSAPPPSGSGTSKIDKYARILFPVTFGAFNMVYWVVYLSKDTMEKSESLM
- Sequence (P28472 26-473): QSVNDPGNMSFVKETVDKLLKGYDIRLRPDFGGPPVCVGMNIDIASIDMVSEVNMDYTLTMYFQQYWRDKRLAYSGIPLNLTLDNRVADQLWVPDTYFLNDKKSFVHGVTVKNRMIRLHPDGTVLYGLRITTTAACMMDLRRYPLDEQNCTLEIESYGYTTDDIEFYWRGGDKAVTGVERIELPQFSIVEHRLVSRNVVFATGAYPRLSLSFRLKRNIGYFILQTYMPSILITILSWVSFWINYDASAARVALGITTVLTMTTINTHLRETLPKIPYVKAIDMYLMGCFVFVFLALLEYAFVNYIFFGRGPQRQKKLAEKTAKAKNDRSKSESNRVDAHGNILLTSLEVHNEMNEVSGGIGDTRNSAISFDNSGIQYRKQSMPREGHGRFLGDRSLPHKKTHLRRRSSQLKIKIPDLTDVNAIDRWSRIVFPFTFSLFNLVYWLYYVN
- Sequence (O14764 25-452 partner): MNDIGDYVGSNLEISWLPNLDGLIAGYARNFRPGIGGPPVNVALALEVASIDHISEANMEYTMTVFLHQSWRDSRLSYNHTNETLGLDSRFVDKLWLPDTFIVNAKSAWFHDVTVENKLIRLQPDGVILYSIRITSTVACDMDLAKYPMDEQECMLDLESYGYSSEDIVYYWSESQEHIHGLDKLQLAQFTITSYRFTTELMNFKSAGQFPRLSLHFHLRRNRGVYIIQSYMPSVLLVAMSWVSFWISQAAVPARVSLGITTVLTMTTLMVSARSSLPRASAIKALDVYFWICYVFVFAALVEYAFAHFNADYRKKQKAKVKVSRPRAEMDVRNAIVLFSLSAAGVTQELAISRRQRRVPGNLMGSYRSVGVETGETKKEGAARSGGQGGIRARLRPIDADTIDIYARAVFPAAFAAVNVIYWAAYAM
- test.name: Whole-cell patch clamp, extrasynaptic functional activity (positive allosteric regulation of GABA-induced current)
- protocol.conditions: patch clamp -60 mV, GABA at EC10-20, α4β3δ-HEK-FlpIn-TRex cells
pEC50: −log10 of the molar value.
metric: pEC50

smiles=C[C@@]1(O)CC[C@H]2[C@H](CC[C@@H]3[C@@H]2CC[C@]2(C)[C@@H](C(=O)Cn4cnn(-c5cc(F)nc(F)c5)c4=O)CC[C@@H]32)C1 metric=pEC50 measured_number=7.17
smiles=CC(C)(C)n1ncn(CC(=O)[C@H]2CC[C@H]3[C@@H]4CC[C@@H]5C[C@](C)(O)CC[C@@H]5[C@H]4CC[C@]23C)c1=O metric=pEC50 measured_number=6.95
smiles=C[C@@]1(O)CC[C@H]2[C@H](CC[C@@H]3[C@@H]2CC[C@]2(C)[C@@H](C(=O)Cn4cnn(-c5cccc(F)c5)c4=O)CC[C@@H]32)C1 metric=pEC50 measured_number=8.00
smiles=C[C@@]1(O)CC[C@H]2[C@H](CC[C@@H]3[C@@H]2CC[C@]2(C)[C@@H](C(=O)Cn4cnn(-c5cncc(F)c5)c4=O)CC[C@@H]32)C1 metric=pEC50 measured_number=6.82
smiles=C[C@@]1(O)CC[C@H]2[C@H](CC[C@@H]3[C@@H]2CC[C@]2(C)[C@@H](C(=O)Cn4cnn(-c5ccccc5)c4=O)CC[C@@H]32)C1 metric=pEC50 measured_number=7.54
smiles=C[C@@]1(O)CC[C@H]2[C@H](CC[C@@H]3[C@@H]2CC[C@]2(C)[C@@H](C(=O)Cn4cnn(-c5cccc(C#N)c5)c4=O)CC[C@@H]32)C1 metric=pEC50 measured_number=7.30

###

- system.name: α4β3δ GABA receptors (α4β3δ-HEK-FlpIn-TRex stable cell strain) (Homo sapiens, UniProt P28472+P48169)
- test.name: Whole-cell patch clamp, extrasynaptic functional activity (positive allosteric regulation of GABA-induced current)
- protocol.conditions: patch clamp -60 mV, GABA at EC10-20, α4β3δ-HEK-FlpIn-TRex cells
metric: EC50 (nM)

smiles=C[C@@]1(O)CC[C@H]2[C@H](CC[C@@H]3[C@@H]2CC[C@]2(C)[C@@H](C(=O)Cn4ccn(-c5cccc(F)c5)c4=O)CC[C@@H]32)C1 measured_number=139
smiles=C[C@@]1(O)CC[C@H]2[C@H](CC[C@@H]3[C@@H]2CC[C@]2(C)[C@@H](C(=O)Cn4cnn(-c5cc(F)cc(F)c5)c4=O)CC[C@@H]32)C1 measured_number=35
smiles=C[C@@]1(O)CC[C@@]2(C)[C@@H](CC[C@@H]3[C@@H]2CC[C@]2(C)[C@@H](C(=O)Cn4cnn(-c5ccnc(F)c5)c4=O)CC[C@@H]32)C1 measured_number=143
smiles=C[C@@]1(O)CC[C@H]2[C@H](CC[C@@H]3[C@@H]2CC[C@]2(C)[C@@H](C(=O)Cn4cnn(C5CCCC5)c4=O)CC[C@@H]32)C1 measured_number=203

###

- test.name: In vitro liver microsomal stability assay, rat
- Type: in vitro ADME
- protocol.conditions: Rat liver microsomes 0.5 mg/mL, NADPH
So basically, if Remaining amount % at 60 min comes in under 20% it's 1.0, and if it's 20% or more it's 0.0.

compound="C[C@@]1(O)CC[C@H]2[C@H](CC[C@@H]3[C@@H]2CC[C@]2(C)[C@@H](C(=O)Cn4cnn(-c5nccs5)c4=O)CC[C@@H]32)C1 [Compound 32]" label_class=1.0
compound="C[C@@]1(O)CC[C@@]2(C)[C@@H](CC[C@@H]3[C@@H]2CC[C@]2(C)[C@@H](C(=O)Cn4cnn(-c5cccc(F)c5)c4=O)CC[C@@H]32)C1 [Compound 33]" label_class=0.0
compound="COc1cccc(-n2ncn(CC(=O)[C@H]3CC[C@H]4[C@@H]5CC[C@@H]6C[C@](C)(O)CC[C@@H]6[C@H]5CC[C@]34C)c2=O)c1 [Compound 5]" label_class=1.0
compound="C[C@@]1(O)CC[C@H]2[C@H](CC[C@@H]3[C@@H]2CC[C@]2(C)[C@@H](C(=O)Cn4cnn(-c5cccc(F)n5)c4=O)CC[C@@H]32)C1 [Compound 20]" label_class=1.0
compound="C[C@@]1(O)CC[C@H]2[C@H](CC[C@@H]3[C@@H]2CC[C@]2(C)[C@@H](C(=O)Cn4cnn(-c5cc(F)nc(F)c5)c4=O)CC[C@@H]32)C1 [Compound 41]" label_class=0.0
compound="C[C@@]1(O)CC[C@H]2[C@H](CC[C@@H]3[C@@H]2CC[C@]2(C)[C@@H](C(=O)Cn4cnn(-c5cc(F)ccc5F)c4=O)CC[C@@H]32)C1 [Compound 24]" label_class=1.0
compound="C[C@@]1(O)CC[C@H]2[C@H](CC[C@@H]3[C@@H]2CC[C@]2(C)[C@@H](C(=O)Cn4cnn(C5CCCCC5)c4=O)CC[C@@H]32)C1 [Compound 30]" label_class=1.0
compound="CC(C)(C)n1ncn(CC(=O)[C@H]2CC[C@H]3[C@@H]4CC[C@@H]5C[C@](C)(O)CC[C@@H]5[C@H]4CC[C@]23C)c1=O [Compound 45]" label_class=1.0
compound="C[C@@]1(O)CC[C@H]2[C@H](CC[C@@H]3[C@@H]2CC[C@]2(C)[C@@H](C(=O)Cn4cnn(-c5ccccc5)c4=O)CC[C@@H]32)C1 [Compound 3]" label_class=0.0
compound="C[C@@]1(O)CC[C@H]2[C@H](CC[C@@H]3[C@@H]2CC[C@]2(C)[C@@H](C(=O)Cn4cnn(-c5ccc(F)cc5)c4=O)CC[C@@H]32)C1 [Compound 4]" label_class=0.0
compound="C[C@@]1(O)CC[C@H]2[C@H](CC[C@@H]3[C@@H]2CC[C@]2(C)[C@@H](C(=O)Cn4cnn(-c5cc(F)cc(F)c5)c4=O)CC[C@@H]32)C1 [Compound 28]" label_class=0.0
compound="C[C@@]1(O)CC[C@H]2[C@H](CC[C@@H]3[C@@H]2CC[C@]2(C)[C@@H](C(=O)Cn4cnn(-c5ccccc5F)c4=O)CC[C@@H]32)C1 [Compound 18]" label_class=1.0
compound="C[C@@]1(O)CC[C@H]2[C@H](CC[C@@H]3[C@@H]2CC[C@]2(C)[C@@H](C(=O)Cn4cnn(-c5cncc(F)c5)c4=O)CC[C@@H]32)C1 [Compound 23]" label_class=0.0
compound="C[C@@]1(O)CC[C@H]2[C@H](CC[C@@H]3[C@@H]2CC[C@]2(C)[C@@H](C(=O)Cn4cnn(CCOC(F)(F)F)c4=O)CC[C@@H]32)C1 [Compound 43]" label_class=1.0
compound="Cn1ncn(CC(=O)[C@H]2CC[C@H]3[C@@H]4CC[C@@H]5C[C@](C)(O)CC[C@@H]5[C@H]4CC[C@]23C)c1=O [Compound 6]" label_class=1.0
